Recorded Residual antibiotic after 2 h (*) values for a group of molecules are listed next.
assay: in vitro adsorption of various antibiotics onto activated charcoal; type: physicochemical; details: start 3/1, extra charcoal: 6/1 after 1 h and 9/1 after 2 h, PBS pH 6, 37° C.
Supply the numeric figure in %, leaving out any unit text.

{"molecule": "O=C(O)[C@H]1/C(=C/CO)O[C@@H]2CC(=O)N21 [Clavulanate]", "quantityUnit": "%", "Residual antibiotic after 2 h (*)": 22}
{"molecule": "CN(C)c1cc(NC(=O)CNC(C)(C)C)c(O)c2c1C[C@H]1C[C@H]3[C@H](N(C)C)C(O)=C(C(N)=O)C(=O)[C@@]3(O)C(O)=C1C2=O [Tigecycline]", "quantityUnit": "%", "Residual antibiotic after 2 h (*)": 21}

With those in mind, consider the next molecule.
response.value for CN[C@H](CC(C)C)C(=O)N[C@H]1C(=O)N[C@@H](CC(N)=O)C(=O)N[C@H]2C(=O)N[C@H]3C(=O)N[C@H](C(=O)N[C@H](C(=O)O)c4cc(O)cc(O)c4-c4cc3ccc4O)[C@H](O)c3ccc(c(Cl)c3)Oc3cc2cc(c3O[C@@H]2O[C@H](CO)[C@@H](O)[C@H](O)[C@H]2O[C@H]2C[C@](C)(N)[C@H](O)[C@H](C)O2)Oc2ccc(cc2Cl)[C@H]1O [Vancomycin] (field: Residual antibiotic after 2 h (*)) = 27
